Exercise: state measured Ki for each of the molecules provided.
target: human emopamil binding protein and human 7-dehydrocholesterol reductase co-expressing cell membrane (Homo sapiens (Human), UniProt Q15125)
Sequence (Q15125 whole entry): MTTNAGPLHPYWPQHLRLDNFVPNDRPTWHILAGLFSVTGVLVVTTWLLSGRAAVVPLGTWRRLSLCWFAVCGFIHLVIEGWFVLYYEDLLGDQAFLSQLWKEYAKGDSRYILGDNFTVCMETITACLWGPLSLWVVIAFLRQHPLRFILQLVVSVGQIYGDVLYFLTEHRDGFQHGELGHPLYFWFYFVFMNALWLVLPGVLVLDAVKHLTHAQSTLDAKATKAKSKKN
Give bare numbers, in nM.

Please go through the list and note Ki for each molecule.
1. O=S1(=O)CC2(CCN(CCOc3cnc(C4CCCCC4)c(C(F)(F)F)c3)CC2)C1
2. O=S1(=O)CC2(CCN(CC[C@H](F)c3ccc(C(F)(F)F)nc3)CC2)C1 (single isomer, unassigned) [237A*]
3. CC(C)(CN1CCC2(C1)CS(=O)(=O)C2)Oc1ccc(OC(F)(F)F)cc1
4. O=S1(=O)CC2(CCN(CCOc3ccc(F)cn3)CC2)C1

10.7
89.6
14.2
110
